- measurement_description: chemical genetic growth profiling, strain panel (AID 1159580);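 note: tested at 20 µM; growth read once vehicle control cultures reached saturation at 30 °C; lower values mean less growth of the strain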
- run_parameters: S. cerevisiae deletion strains, growth OD, locus YAL026C, strain drs2
About 2,000 (36%) of roughly 5,500 compounds were called active. Roughly 18% stayed inconclusive and do not appear here. Cut-off read from the data, not from the text of the source: active = normalized growth mostly below about 0.91 (no sharp cut-off); inconclusive = no clear call, values can overlap the other calls; inactive = mostly above about 0.92. The list shows a part of the results.
Respond only with the outcome that fits, drawn from active, inactive

Test call, this compound: Cc1ccc2c(c1)CC[C@H]1CC(=O)CC[C@]21C
inactive

Test call, this compound: CC(C)(C)CC(C)(C)c1ccc(OCCOCC[N+](C)(C)Cc2ccccc2)cc1
active

Test call, this compound: COc1ccc2cc1Oc1ccc(cc1)C[C@H]1c3c(cc4c(c3Oc3cc5c(cc3OC)CCN(C)[C@@H]5C2)OCO4)CCN1C
inactive

Test call, this compound: N#Cc1c(Cl)c(Cl)c(Cl)c(C#N)c1Cl
active

Test call, this compound: COc1cccc2c1CCC1CC(=O)CCC21C (stereo unspecified)
inactive

Test call, this compound: CC[C@H]1OC(=O)C[C@@H](O)[C@H](C)[C@@H](O[C@@H]2O[C@H](C)[C@@H](O[C@H]3C[C@@](C)(O)[C@@H](O)[C@H](C)O3)[C@H](N(C)C)[C@H]2O)[C@@H](CC=O)C[C@@H](C)C(=O)/C=C/C(C)=C/[C@@H]1CO[C@@H]1O[C@H](C)[C@@H](O)[C@@H](OC)[C@H]1OC
inactive

Test call, this compound: COc1ccc2c(c1)[C@@]1(C)CCC(=O)C[C@H]1CC2
inactive
